tested on: LNCaP xenograft; experiment: Biodistribution of 68Ga-labeled compounds in mice bearing LNCaP xenograft; assay type: in vivo; conditions: Seminal, 1 h p.i.
Property: Biodistribution, Seminal (Avg) (% ID/g)
Output spec: scalar in % ID/g, unitless text.

Lookup: Which Biodistribution, Seminal (Avg) value belongs to O=C(O)CCCC(NC(=O)NC(CCCONC(=O)C(Cc1c2ccccc2cc2ccccc12)NC(=O)C1CCC(CNC(=O)CN2CCN(CC(=O)O)CCN(CC(=O)O)CCN(CC(=O)O)CC2)CC1)C(=O)O)C(=O)O.[68Ga] (stereo not drawn) [^68Ga-CCZ02018] ?
Found: 0.27

Lookup: And O=C(O)CSCC(NC(=O)NC(CNC(=O)CNC(=O)C(Cc1c2ccccc2cc2ccccc12)NC(=O)C1CCC(CNC(=O)CN2CCN(CC(=O)O)CCN(CC(=O)O)CCN(CC(=O)O)CC2)CC1)C(=O)O)C(=O)O.[68Ga] (stereo not drawn) [68Ga-CCZ01194] ?
Found: 0.13

Lookup: And O=C(O)CCCC(NC(=O)NC(CNC(=O)CNC(=O)C(Cc1c2ccccc2cc2ccccc12)NC(=O)C1CCC(CNC(=O)CN2CCN(CC(=O)O)CCN(CC(=O)O)CCN(CC(=O)O)CC2)CC1)C(=O)O)C(=O)O.[68Ga] (stereo not drawn) [68Ga-CCZ01198] ?
Found: 0.47

Lookup: And O=C(O)CSCC(NC(=O)NC(Cc1cn(CCNC(=O)C(Cc2c3ccccc3cc3ccccc23)NC(=O)C2CCC(CNC(=O)CN3CCN(CC(=O)O)CCN(CC(=O)O)CCN(CC(=O)O)CC3)CC2)nn1)C(=O)O)C(=O)O.[68Ga] (stereo not drawn) [^68Ga-CCZ01186] ?
Found: 6.65

Lookup: And O=C(O)CCCC(NC(=O)NC(COCCNC(=O)C(Cc1c2ccccc2cc2ccccc12)NC(=O)C1CCC(CNC(=O)CN2CCN(CC(=O)O)CCN(CC(=O)O)CCN(CC(=O)O)CC2)CC1)C(=O)O)C(=O)O.[68Ga] (stereo not drawn) [^68Ga-CCZ02011] ?
Found: 11.24

Lookup: And O=C(O)CSCC(NC(=O)NC(Cc1ccc(NC(=O)C(Cc2c3ccccc3cc3ccccc23)NC(=O)C2CCC(CNC(=O)CN3CCN(CC(=O)O)CCN(CC(=O)O)CCN(CC(=O)O)CC3)CC2)cc1)C(=O)O)C(=O)O.[68Ga] (stereo not drawn) [^68Ga-CCZ01188] ?
Found: 0.85

----------
system: LNCaP xenograft; experiment: Biodistribution of 68Ga-labeled compounds in mice bearing LNCaP xenograft; assay type: in vivo; settings: Adrenal, 1 h p.i.
Property: Biodistribution, Adrenal (Avg) (% ID/g)
Output spec: scalar in % ID/g, unitless text.

Lookup: Param readout = Biodistribution, Adrenal (Avg); param system = LNCaP xenograft; param query = O=C(O)CSCC(NC(=O)NC(CNC(=O)CNC(=O)C(Cc1c2ccccc2cc2ccccc12)NC(=O)C1CCC(CNC(=O)CN2CCN(CC(=O)O)CCN(CC(=O)O)CCN(CC(=O)O)CC2)CC1)C(=O)O)C(=O)O.[68Ga] (stereo not shown) [68Ga-CCZ01194] ; response: value
Found: 0.65

Lookup: And O=C(O)CSCC(NC(=O)NC(Cc1ccc(NC(=O)C(Cc2c3ccccc3cc3ccccc23)NC(=O)C2CCC(CNC(=O)CN3CCN(CC(=O)O)CCN(CC(=O)O)CCN(CC(=O)O)CC3)CC2)cc1)C(=O)O)C(=O)O.[68Ga] (stereo not shown) [^68Ga-CCZ01188] ?
Found: 0.98

Lookup: And O=C(O)CCCC(NC(=O)NC(CCCONC(=O)C(Cc1c2ccccc2cc2ccccc12)NC(=O)C1CCC(CNC(=O)CN2CCN(CC(=O)O)CCN(CC(=O)O)CCN(CC(=O)O)CC2)CC1)C(=O)O)C(=O)O.[68Ga] (stereo not shown) [^68Ga-CCZ02018] ?
Found: 0.53

Lookup: And O=C(O)CCCC(NC(=O)NC(COCCNC(=O)C(Cc1c2ccccc2cc2ccccc12)NC(=O)C1CCC(CNC(=O)CN2CCN(CC(=O)O)CCN(CC(=O)O)CCN(CC(=O)O)CC2)CC1)C(=O)O)C(=O)O.[68Ga] (stereo not shown) [^68Ga-CCZ02011] ?
Found: 0.36

Lookup: And O=C(O)CSCC(NC(=O)NC(Cc1cn(CCNC(=O)C(Cc2c3ccccc3cc3ccccc23)NC(=O)C2CCC(CNC(=O)CN3CCN(CC(=O)O)CCN(CC(=O)O)CCN(CC(=O)O)CC3)CC2)nn1)C(=O)O)C(=O)O.[68Ga] (stereo not shown) [^68Ga-CCZ01186] ?
Found: 0.29

Lookup: And O=C(O)CCC[C@H](OC(=O)N[C@@H](CCCCNC(=O)[C@H](Cc1c2ccccc2cc2ccccc12)NC(=O)[C@H]1CC[C@H](CNC(=O)CCc2ccc(O)c(CN(CCN(CC(=O)O)Cc3cc(CCC(=O)O)ccc3O)CC(=O)O)c2)CC1)C(=O)O)C(=O)O.[68Ga] [^68Ga-AR-113-1] ?
Found: 1.22

Lookup: And O=C(O)CCCC(NC(=O)NC(CNC(=O)CNC(=O)C(Cc1c2ccccc2cc2ccccc12)NC(=O)C1CCC(CNC(=O)CN2CCN(CC(=O)O)CCN(CC(=O)O)CCN(CC(=O)O)CC2)CC1)C(=O)O)C(=O)O.[68Ga] (stereo not shown) [68Ga-CCZ01198] ?
Found: 0.19

----------
Could you please report measured Biodistribution, Intestine (Avg) for the items listed next?
tested on: LNCaP xenograft; test: Biodistribution of 68Ga-labeled compounds in mice bearing LNCaP xenograft; assay type: in vivo; settings: Intestine, 1 h p.i.
Output spec: scalar in % ID/g, unitless text.

Lookup: Param readout = Biodistribution, Intestine (Avg); param system = LNCaP xenograft; param query = O=C(O)CCCC(NC(=O)NC(CCCONC(=O)C(Cc1c2ccccc2cc2ccccc12)NC(=O)C1CCC(CNC(=O)CN2CCN(CC(=O)O)CCN(CC(=O)O)CCN(CC(=O)O)CC2)CC1)C(=O)O)C(=O)O.[68Ga] (stereo not shown) [^68Ga-CCZ02018] ; response: value
Found: 0.25

Lookup: And O=C(O)CCCC(NC(=O)NC(CNC(=O)CNC(=O)C(Cc1c2ccccc2cc2ccccc12)NC(=O)C1CCC(CNC(=O)CN2CCN(CC(=O)O)CCN(CC(=O)O)CCN(CC(=O)O)CC2)CC1)C(=O)O)C(=O)O.[68Ga] (stereo not shown) [68Ga-CCZ01198] ?
Found: 0.16

Lookup: And O=C(O)CCCC(NC(=O)NC(COCCNC(=O)C(Cc1c2ccccc2cc2ccccc12)NC(=O)C1CCC(CNC(=O)CN2CCN(CC(=O)O)CCN(CC(=O)O)CCN(CC(=O)O)CC2)CC1)C(=O)O)C(=O)O.[68Ga] (stereo not shown) [^68Ga-CCZ02011] ?
Found: 0.40

Lookup: And O=C(O)CSCC(NC(=O)NC(CNC(=O)CNC(=O)C(Cc1c2ccccc2cc2ccccc12)NC(=O)C1CCC(CNC(=O)CN2CCN(CC(=O)O)CCN(CC(=O)O)CCN(CC(=O)O)CC2)CC1)C(=O)O)C(=O)O.[68Ga] (stereo not shown) [68Ga-CCZ01194] ?
Found: 0.79

Lookup: And O=C(O)CCC[C@H](OC(=O)N[C@@H](CCCCNC(=O)[C@H](Cc1c2ccccc2cc2ccccc12)NC(=O)[C@H]1CC[C@H](CNC(=O)CCc2ccc(O)c(CN(CCN(CC(=O)O)Cc3cc(CCC(=O)O)ccc3O)CC(=O)O)c2)CC1)C(=O)O)C(=O)O.[68Ga] [^68Ga-AR-113-1] ?
Found: 1.36

Lookup: And O=C(O)CSCC(NC(=O)NC(Cc1ccc(NC(=O)C(Cc2c3ccccc3cc3ccccc23)NC(=O)C2CCC(CNC(=O)CN3CCN(CC(=O)O)CCN(CC(=O)O)CCN(CC(=O)O)CC3)CC2)cc1)C(=O)O)C(=O)O.[68Ga] (stereo not shown) [^68Ga-CCZ01188] ?
Found: 0.56

Lookup: And O=C(O)CSCC(NC(=O)NC(Cc1cn(CCNC(=O)C(Cc2c3ccccc3cc3ccccc23)NC(=O)C2CCC(CNC(=O)CN3CCN(CC(=O)O)CCN(CC(=O)O)CCN(CC(=O)O)CC3)CC2)nn1)C(=O)O)C(=O)O.[68Ga] (stereo not shown) [^68Ga-CCZ01186] ?
Found: 0.08

----------
Could you please report measured Biodistribution, Stomach (Avg) for the items listed next?
System: LNCaP xenograft
Assay: Biodistribution of 68Ga-labeled compounds in mice bearing LNCaP xenograft
Format: in vivo
Conditions: Stomach, 1 h p.i.
From the text: All chemicals and solvents were obtained from commercial sources, and used without further purification. PSMA-targeted peptides were synthesized using a solid phase approach on an AAPPTec (Louisville, KY) Endeavor 90 peptide synthesizer. […]
Output spec: scalar in % ID/g, unitless text.

Lookup: Param readout = Biodistribution, Stomach (Avg); param system = LNCaP xenograft; param query = O=C(O)CCC[C@H](OC(=O)N[C@@H](CCCCNC(=O)[C@H](Cc1c2ccccc2cc2ccccc12)NC(=O)[C@H]1CC[C@H](CNC(=O)CCc2ccc(O)c(CN(CCN(CC(=O)O)Cc3cc(CCC(=O)O)ccc3O)CC(=O)O)c2)CC1)C(=O)O)C(=O)O.[68Ga] [^68Ga-AR-113-1] ; response: value
Found: 0.22

Lookup: And O=C(O)CCCC(NC(=O)NC(CCCONC(=O)C(Cc1c2ccccc2cc2ccccc12)NC(=O)C1CCC(CNC(=O)CN2CCN(CC(=O)O)CCN(CC(=O)O)CCN(CC(=O)O)CC2)CC1)C(=O)O)C(=O)O.[68Ga] (stereo not shown) [^68Ga-CCZ02018] ?
Found: 0.07

Lookup: And O=C(O)CSCC(NC(=O)NC(Cc1ccc(NC(=O)C(Cc2c3ccccc3cc3ccccc23)NC(=O)C2CCC(CNC(=O)CN3CCN(CC(=O)O)CCN(CC(=O)O)CCN(CC(=O)O)CC3)CC2)cc1)C(=O)O)C(=O)O.[68Ga] (stereo not shown) [^68Ga-CCZ01188] ?
Found: 0.19

Lookup: And O=C(O)CSCC(NC(=O)NC(CNC(=O)CNC(=O)C(Cc1c2ccccc2cc2ccccc12)NC(=O)C1CCC(CNC(=O)CN2CCN(CC(=O)O)CCN(CC(=O)O)CCN(CC(=O)O)CC2)CC1)C(=O)O)C(=O)O.[68Ga] (stereo not shown) [68Ga-CCZ01194] ?
Found: 0.09
